Reported z-score is given for each of the following compounds.
# measurement.target: Homeobox protein Hox-A13 (Mus musculus) (UniProt Q62424)
# Sequence (Q62424 whole entry, looked up): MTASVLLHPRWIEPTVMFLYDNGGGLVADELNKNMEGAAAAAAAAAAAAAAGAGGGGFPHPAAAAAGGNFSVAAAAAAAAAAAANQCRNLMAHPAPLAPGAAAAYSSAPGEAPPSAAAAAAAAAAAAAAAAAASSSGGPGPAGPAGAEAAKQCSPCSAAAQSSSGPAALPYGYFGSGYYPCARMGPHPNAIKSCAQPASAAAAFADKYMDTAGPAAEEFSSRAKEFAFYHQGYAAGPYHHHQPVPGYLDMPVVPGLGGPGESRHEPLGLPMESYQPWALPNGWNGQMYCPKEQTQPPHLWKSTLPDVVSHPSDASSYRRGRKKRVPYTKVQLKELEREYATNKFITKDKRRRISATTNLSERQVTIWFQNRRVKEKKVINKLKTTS
# test.protocol: inhibitors of HoxA13-DNA binding, primary screen, biochemical, fluorescence polarization, labeled oligonucleotide (AID 1185)
# setup.conditions: 15 min, higher = more signal, called active from +8 up or from −8 down
I'd appreciate a reply containing only the number, no unit.

Record excerpt, results attached:
// fetch z-score given entry "COC(=O)c1c(CC[C@@H](CO)NC(=O)N2CCC[C@H]2Cn2cc(Cc3ccccc3)nn2)oc(C(C)=O)c1C(=O)OC" -3.88

// fetch z-score given entry "CCCCC(=C=CC[C@@H](O)c1ccccc1OCCO)C[C@@H](O)COCc1ccccc1" -4.72

// fetch z-score given entry COc1cc(OC)c(C(O)C2C=CC3C(=O)N(C)C(=O)C3N2NC(=O)OC(C)(C)C)cc1Br (stereo not given) -2.6

Further cases:
// fetch z-score given entry "CCCC[C@@H]1C[C@H]1[C@@H](NC(=O)c1cccs1)c1ccc(C(F)(F)F)cc1" -0.891

// fetch z-score given entry C=C(C)C1CCC(C(O)C2C=CC3C(=O)N(C)C(=O)C3N2N2CCCCC2)CC1 (stereo not given) -5.66

// fetch z-score given entry "COC(=O)c1c2oc(c1C(=O)OC)C(=O)N(C)Cc1cn(nn1)C[C@H](Cc1ccccc1)NC(=O)N[C@H](CO)CC2" -1.66

// fetch z-score given entry "C[C@]1(C(=O)NC2CC2)c2ccccc2C(=O)N(Cc2ccccc2)[C@H]1c1ccc(CO)cc1" -1.31

// fetch z-score given entry "[N-]=[N+]=NCc1ccccc1C[C@]1(C(N)=O)N=C(c2ccc(OCCCO)cc2)O[C@H]1c1ccccc1" -6.49

// fetch z-score given entry "CC(C)C(=C=CC[C@H](O)c1cccc(OCCO)c1)C[C@H](O)c1cc(Cl)cc(Cl)c1O" -4.22

// fetch z-score given entry "COCCOC(=O)N1C(=O)[C@@]2(c3cc(C#CCNC(N)=O)ccc31)[C@H](C(=O)N1CCc3cc(OC)c(OC)cc3C1)[C@H]1C(=O)O[C@H](c3ccccc3)[C@H](c3ccccc3)N1[C@@H]2c1ccccc1OCCO" 0.577

// fetch z-score given entry O=C1OCCC=C[C@H]2OC34C=CCN(Cn5nnc6ccccc65)C(=O)[C@H]3N(CCCCCCO)C(=O)[C@@H]4C12 (stereo not given in full) -3.78

// fetch z-score given entry "CCOC(=O)[C@H]1[C@@H]2C(=O)N3CCC[C@H]3[C@H](O[Si](C(C)C)(C(C)C)C(C)C)[C@H]2C=C2CCN(S(=O)(=O)c3ccc(C)cc3)C[C@H]21" -4.48

// fetch z-score given entry "CC(C)(C)OC(=O)CC[C@@]1(C(=O)NCc2ccccc2)N=C(c2ccc(OCCCO)cc2)O[C@@H]1c1ccccc1N=[N+]=[N-]" -1.44

// fetch z-score given entry O=C1OCC=C[C@H]2OC34C=CCN(Cc5ccccc5)C(=O)[C@H]3N(CCCCCCO)C(=O)[C@@H]4[C@@H]12 (stereo not given in full) -4.53

// fetch z-score given entry "CCOC(=O)C1=C[C@@H](c2ccccc2)N(S(=O)(=O)c2ccc(C)cc2)[C@H]1c1ccccc1Cl" 0.552

* * *

# test.protocol: modulators of S6 phosphorylation in cells, primary screen, cell-based, A549, cytoblot, luminescence, serum-stimulated (AID 1158);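 further: serum-stimulated A549 lung adenocarcinoma cells; signal is phosphorylated S6 detected by cytoblot immunostaining with HRP secondary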
# setup.conditions: A549 phospho-S6 cytoblot, 5 h, higher = more signal
Please use true whenever z-score is not below -0.5, and false whenever it is.

Use the examples below as a reference point.
Is it the case that Cc1ccccc1C(O)C1C=CC2C(=O)N(C)C(=O)C2N1N(c1ccccc1)c1ccccc1 (centres undefined) has z-score reaching or exceeding -0.5? false

Is it the case that O=C1NC(=O)C2C1C=CC(C(O)c1cccc3ccccc13)N2Nc1ccc(Cl)cc1Cl (centres undefined) has z-score reaching or exceeding -0.5? false

Is it the case that "C=C(/C(=C/C[C@@H](OC(C)=O)c1cccc(OCCO)c1)c1cc(C(=O)OC)ccc1OC)C(C)C" has z-score reaching or exceeding -0.5? true

Further cases:
Is it the case that CC(=O)c1ccc(C(O)C2C=CC3C(=O)N(c4ccccc4)C(=O)C3N2Nc2ccc(C#N)cc2)cc1 (centres undefined) has z-score reaching or exceeding -0.5? false

Is it the case that CCCCCCCCCCC(O)C1C=CC2C(=O)N(C)C(=O)C2N1NC(=O)OC(C)(C)C (centres undefined) has z-score reaching or exceeding -0.5? false

Is it the case that O=C1C2C=CC(C(O)c3ccc(F)cc3)N(n3cnnc3)C2C(=O)N1Cc1ccccc1 (centres undefined) has z-score reaching or exceeding -0.5? true

Is it the case that "O=C1O[C@H](c2ccccc2)[C@H](c2ccccc2)N2[C@H]1[C@@H](C(=O)N1CCN(c3ncccn3)CC1)[C@]1(C(=O)Nc3ccc(C#CC4(O)CCCCCC4)cc31)[C@H]2c1ccc(OCCO)cc1" has z-score reaching or exceeding -0.5? true

Is it the case that "CCCC[C@@H]1C[C@H]1[C@@H](NC(=O)c1cccs1)c1ccc(C(F)(F)F)cc1" has z-score reaching or exceeding -0.5? false

Is it the case that "CCOC(=O)c1ccc(NC(=O)O[C@H]2[C@H](OC(=O)Nc3ccc4c(c3)OCO4)[C@@H](OC(=O)Nc3ccc4c(c3)OCO4)[C@@H](OC)O[C@@H]2CO)cc1" has z-score reaching or exceeding -0.5? true

Is it the case that CCC(CC)C(O)C1C=CC2C(=O)N(c3ccccc3)C(=O)C2N1Nc1ccc(C(C)C)cc1 (centres undefined) has z-score reaching or exceeding -0.5? true

Is it the case that "CN(C)C(=O)[C@@]1(Cc2ccccc2CN=[N+]=[N-])N=C(c2ccc(OCCCO)cc2)O[C@H]1c1ccccc1CN=[N+]=[N-]" has z-score reaching or exceeding -0.5? true

Is it the case that "COCCOC(=O)N1C(=O)[C@@]2(c3cc(C#CC4=CCCCC4)ccc31)[C@H](c1ccccc1OCCO)N1[C@H](c3ccccc3)[C@H](c3ccccc3)OC(=O)[C@H]1[C@@H]2C(=O)Nc1nc2ccccc2s1" has z-score reaching or exceeding -0.5? true

* * *

# test.protocol: small-molecule microarray binders of probe aEGFR, primary screen, biochemical, biotinylated probe, 635/667 nm fluorescence (AID 1097);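 further: probe is a biotinylated anti-EGFR antibody binding compounds printed on slides; score combines fluorescence near 667 nm and signal to noise of each spot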
# setup.conditions: higher = more signal
Please use condition met whenever composite z-score is not below -0.06, and condition not met whenever it is.

Use the examples below as a reference point.
Is it the case that "CN(C)CCCNC(=O)[C@@]1(c2ccc([N+](=O)[O-])cc2)CC(=O)N(CC23CC4CC(CC(C4)C2)C3)[C@@H]1c1ccc(CO)cc1I" has composite z-score reaching or exceeding -0.06? condition met

Is it the case that O=C1NC(=O)C2C1C=CC(C(O)CCc1ccccc1)N2Nc1ccc(Cl)cc1Cl (stereo unspecified) has composite z-score reaching or exceeding -0.06? condition met

Further cases:
Is it the case that "CN(C)C(=O)[C@]1(CCS(=O)(=O)c2ccccc2)N=C(c2ccc(OCCCO)cc2)O[C@@H]1c1ccccc1N=[N+]=[N-]" has composite z-score reaching or exceeding -0.06? condition met

Is it the case that C=CC1c2cc(O)c(OC)cc2CCN1Cc1cc2c(cc1Br)OCO2 (stereo unspecified) has composite z-score reaching or exceeding -0.06? condition not met

Is it the case that "O=C1N(Cc2ccccc2)c2ccccc2[C@@H]2OC(c3ccc(OCCCO)cc3)=N[C@]12Cc1ccccc1" has composite z-score reaching or exceeding -0.06? condition met

Is it the case that "C=CCN1Cc2ccccc2[C@H]2OC(c3ccc(OCCCO)cc3)=N[C@@]2(CC=C)C1=O" has composite z-score reaching or exceeding -0.06? condition met

Is it the case that "CCOC(=O)C1=CC[C@@H](c2cccc(Cl)c2)N(S(=O)(=O)c2ccc(C)cc2)C1" has composite z-score reaching or exceeding -0.06? condition not met

Is it the case that "COC(=O)c1nc2oc1CC[C@@H](CO)NC(=O)N(C)Cc1cnnn1C[C@H](Cc1ccccc1)NC2=O" has composite z-score reaching or exceeding -0.06? condition not met

Is it the case that CC(C)N1CC=CC23O[C@@H]4C=CCOC(=O)[C@@H]4[C@H]2C(=O)N(CCCO)[C@@H]3C1=O (stereo partly specified) has composite z-score reaching or exceeding -0.06? condition not met

Is it the case that C=CCC(OC(C)=O)[C@@H]1[C@@H](N(Cc2ccc(-c3cccc(C(F)(F)F)c3)o2)C(=O)c2ccc(-c3ccccc3)cc2)c2cc(OCCCO)ccc2N1C(=O)c1ccc2ccccc2n1 (stereo partly specified) has composite z-score reaching or exceeding -0.06? condition not met

Is it the case that "CC(C)C(=C=CC[C@H](O)c1cccc(OCCO)c1)C[C@H](O)c1cc(Cl)cc(Cl)c1O" has composite z-score reaching or exceeding -0.06? condition not met

Is it the case that CN1C(=O)C2C=CC(C(O)COCc3ccccc3)N(N(c3ccccc3)c3ccccc3)C2C1=O (stereo unspecified) has composite z-score reaching or exceeding -0.06? condition met

Is it the case that "CCOC(=O)C1=C[C@@H](c2ccccc2)N(S(=O)(=O)c2ccc(C)cc2)[C@H]1c1ccccc1Cl" has composite z-score reaching or exceeding -0.06? condition met
